# assayed_target: purified Z-AAT protein (Homo sapiens, UniProt P01009, E366K)
# Construct: Purified Z-AAT protein from human plasma
# Sequence (P01009 25-418 E366K): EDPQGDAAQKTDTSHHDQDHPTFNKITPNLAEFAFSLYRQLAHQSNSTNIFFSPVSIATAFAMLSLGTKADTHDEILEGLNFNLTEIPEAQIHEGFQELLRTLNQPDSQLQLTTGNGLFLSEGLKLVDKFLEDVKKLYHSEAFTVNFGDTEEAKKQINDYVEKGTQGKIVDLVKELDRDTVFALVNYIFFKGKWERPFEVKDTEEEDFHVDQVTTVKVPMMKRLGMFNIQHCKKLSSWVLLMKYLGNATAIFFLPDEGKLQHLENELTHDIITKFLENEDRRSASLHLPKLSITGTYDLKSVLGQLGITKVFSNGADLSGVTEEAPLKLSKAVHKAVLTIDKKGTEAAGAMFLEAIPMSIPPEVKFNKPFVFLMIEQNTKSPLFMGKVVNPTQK
# protocol: Biochemical Assay (Z-AAT Elastase Activity Assay)
# condition_details: purified Z-AAT pre-incubated with compound 1 hour, then hNE; N.D. = activity not detected up to 30 μM
# IC50 per entry
measurement_label: IC50

[[record]]
test_smiles = "CC(C)(O)c1c(-c2ccc(C(=O)O)cc2)c2c(F)cccc2n1-c1ccc(F)cc1"
reported_value = "> 30 µM"

[[record]]
test_smiles = "C[C@]1(O)C[C@H](c2c(-c3ccc(C(=O)O)cc3)c3c(O)cccc3n2-c2ccc(F)cc2)C1"
reported_value = "> 30 µM"

[[record]]
test_smiles = "COCCC(C)(C)c1c(-c2ccc(C(=O)O)cc2)c2c(O)cccc2n1-c1ccc(F)cc1"
reported_value = "2 to 5 µM"

[[record]]
test_smiles = "COCC(C)(C)c1c(-c2ccc3cc(C(=O)O)[nH]c3c2)c2c(O)cc(F)cc2n1-c1ccc(F)c(OC)c1"
reported_value = "2 to 5 µM"


---

# pIC50 per entry
# assayed_target: purified Z-AAT protein (Homo sapiens, UniProt P01009, E366K)
# Construct: Purified Z-AAT protein from human plasma
# protocol: Biochemical Assay (Z-AAT Elastase Activity Assay)
# condition_details: purified Z-AAT pre-incubated with compound 1 hour, then hNE; N.D. = activity not detected up to 30 μM
pIC50: −log10 of the molar value.
measurement_label: pIC50

[[record]]
compound = "O=C(O)c1ccc(-c2c(C3CCOCC3)n(-c3ccc(F)c(F)c3)c3cccc(O)c23)cc1F [Compound 2]"
measurement_label = "pIC50"
reported_value = "< 5.30"

[[record]]
compound = "O=C(O)c1ccc(-c2c(C3CCOCC3)n(-c3ccc(F)c(C(F)F)c3)c3cccc(O)c23)cc1 [Compound 140]"
measurement_label = "pIC50"
reported_value = "< 4.52"

[[record]]
compound = "COCC(C)(C)c1c(-c2ccc(C(=O)O)cc2)c2c(O)cccc2n1-c1ccc(F)c(OC)c1 [Compound 144]"
measurement_label = "pIC50"
reported_value = "< 5.30"

[[record]]
compound = "CC(C)c1c(CCC(=O)O)c2cc(F)ccc2n1-c1ccc(F)cc1 [Compound W29]"
measurement_label = "pIC50"
reported_value = "< 4.52"

[[record]]
compound = "CC(C)c1c(-c2ccc(C(=O)O)cc2)c2c(O)cncc2n1-c1ccc(F)cc1 [Compound 426]"
measurement_label = "pIC50"
reported_value = "< 4.52"

[[record]]
compound = "[2H]C([2H])([2H])Oc1cc(-n2c(C3(COC)CCC3)c(-c3ccc(C(=O)O)c(OC)c3)c3c(O)cc(F)cc32)ccc1F [Compound 471]"
measurement_label = "pIC50"
reported_value = "< 4.52"

[[record]]
compound = "COCC(C)(C)c1c(-c2ccc(C(=O)O)cc2C)c2c(O)cc(Cl)cc2n1-c1ccc(F)cc1 [Compound 217]"
measurement_label = "pIC50"
reported_value = "> 5.70"

[[record]]
compound = "COCC(C)(C)c1c(-c2ccc(C(=O)O)s2)c2c(O)c(F)ccc2n1-c1ccc(F)c(C)c1 [Compound 353]"
measurement_label = "pIC50"
reported_value = "5.30 to 5.70"

[[record]]
compound = "NC(=O)c1ccc(-c2c(C3CCOCC3)n(-c3ccc(F)c(F)c3)c3cccc(O)c23)cc1F [Compound 251]"
measurement_label = "pIC50"
reported_value = "< 4.52"

[[record]]
compound = "CC(CO)(CO)c1c(-c2ccc(C(=O)O)cc2)c2c(O)c(F)ccc2n1-c1ccc(F)cc1 [Compound 156]"
measurement_label = "pIC50"
reported_value = "< 4.52"

[[record]]
compound = "O=C(O)c1cc(-c2c(C3CCOCC3)n(-c3ccc(F)cc3)c3cccc(O)c23)ccc1F [Compound 91]"
measurement_label = "pIC50"
reported_value = "< 5.30"

[[record]]
compound = "COc1cc(-n2c(C(C)C)c(-c3ccc(C(=O)O)c(OC)c3)c3c(O)cc(F)cc32)ccc1F [Compound 524]"
measurement_label = "pIC50"
reported_value = "< 5.30"

[[record]]
compound = "COCC(C)(C)c1c(-c2ccc(C(=O)O)c(OC)c2)c2ccc(F)cc2n1-c1ccc(F)c(OC)c1 [Compound B15]"
measurement_label = "pIC50"
reported_value = "< 4.52"

[[record]]
compound = "Cc1cc(-n2c(C3CCOCC3)c(C3CC4(CC(C(=O)O)C4)C3)c3cc(F)ccc32)ccc1F (stereo not drawn) [Compound W6]"
measurement_label = "pIC50"
reported_value = "< 4.52"

[[record]]
compound = "COc1cc(-n2c(C(C)C)c(-c3ccc(C(=O)O)cc3)c3c(O)cc(F)cc32)ccc1F [Compound 532]"
measurement_label = "pIC50"
reported_value = "< 5.30"

[[record]]
compound = "COCC(C)(C)c1c(-c2ccc(C(=O)O)cc2)c2c(O)cc(F)cc2n1-c1ccc(F)cc1OC [Compound 386]"
measurement_label = "pIC50"
reported_value = "< 5.30"

[[record]]
compound = "O=C(O)c1ccc(-c2c(C3C[C@H]4COC[C@H]4C3)n(-c3ccc(F)c(F)c3)c3cc(F)cc(O)c23)cc1 (stereo partly drawn) [Compound 241]"
measurement_label = "pIC50"
reported_value = "< 5.30"

[[record]]
compound = "COC(=O)N1CCC(c2c(-c3ccc(C(=O)O)cc3)c3c(O)cccc3n2-c2ccc(F)cc2)CC1 [Compound 155]"
measurement_label = "pIC50"
reported_value = "< 5.30"

[[record]]
compound = "Cc1cc(-n2c(C(C)(C)CC#N)c(-c3ncc(C(=O)O)s3)c3c(O)cc(F)cc32)ccc1F [Compound 370]"
measurement_label = "pIC50"
reported_value = "> 5.70"

[[record]]
compound = "O=C(O)c1cc(-c2c(C3CCOCC3)n(-c3ccc(F)cc3)c3cccc(O)c23)cc(C(F)(F)F)n1 [Compound 83]"
measurement_label = "pIC50"
reported_value = "< 5.30"

[[record]]
compound = "Cc1cc(-n2c(C(C)(C)CC#N)c(-c3ccc(C(=O)O)cc3)c3c(O)c(F)c(F)cc32)ccc1F [Compound 366]"
measurement_label = "pIC50"
reported_value = "> 5.70"


Attribution: patent US20230159502A1
